Assay: Chemical stability test (HPLC purity)
Conditions: HPLC, 1 month at 40±2° C., 75±5% relative humidity, air-tight vessel
This listing pairs compounds with measured 1 month Other peaks (%).

| compound | unit.abbreviation | 1 month Other peaks (%) |
| --- | --- | --- |
| COc1ccc(/C=C/C(=O)O[C@@H]2CC[C@]3(CO3)[C@@H]([C@@]3(C)O[C@@H]3CC=C(C)C)[C@@H]2OC)cc1OCCO | % | 1.5 |
| COc1cc(C=CC(=O)OC2CCC3(CO3)C(C3(C)OC3CC=C(C)C)C2OC)cc(OC)c1OC (stereo not drawn) [CKD-731, O-(3,4,5-trimethoxycinnamoyl)fumagillol, reference compound] | % | 2.9 |
| CO[C@@H]1[C@H](OC(=O)C=Cc2ccc(OCCN(C)C)cc2)CC[C@]2(CO2)[C@H]1[C@@]1(C)O[C@@H]1CC=C(C)C [CKD-732, reference compound] | % | 4.6 |
